// data source = ChEMBL document CHEMBL1961873

# study-system: Serine/threonine-protein kinase MRCK alpha (Homo sapiens);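 also: each value is an averaged percent inhibition of MRCK alpha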
# test-conditions: at 1 µM
Provide the recorded inhibition for the entries that follow.
Give just the number in %; leave the unit off.

Enter reported inhibition observed with Serine/threonine-protein kinase MRCK alpha (Homo sapiens) for "C[C@@H](Oc1cc(-n2cnc3ccc(OCC4CCN(C)CC4)cc32)sc1C(N)=O)c1ccccc1C(F)(F)F"
5.18

Enter reported inhibition observed with Serine/threonine-protein kinase MRCK alpha (Homo sapiens) for "CN(C)CCCn1c(-c2nonc2N)nc2cnccc21"
16.4

Enter reported inhibition observed with Serine/threonine-protein kinase MRCK alpha (Homo sapiens) for "c1ccc(Cc2nc3ccc(Nc4ncnc5ccccc45)cc3[nH]2)cc1"
-0.25

Enter reported inhibition observed with Serine/threonine-protein kinase MRCK alpha (Homo sapiens) for "COc1ccc(-c2nn3ncccc3c2-c2ccnc(Nc3cccc(C(F)(F)F)c3)n2)cc1"
1.22

Enter reported inhibition observed with Serine/threonine-protein kinase MRCK alpha (Homo sapiens) for "OCc1ccc(-c2nc(-c3ccccn3)c(-c3ccc4c(c3)OCO4)[nH]2)cc1"
-0.19

Enter reported inhibition observed with Serine/threonine-protein kinase MRCK alpha (Homo sapiens) for "CN(c1ccc(NC(=O)Nc2ccc(OC(F)(F)F)cc2)cc1)c1ccnc(Nc2cccc(S(N)(=O)=O)c2)n1"
-0.82

Enter reported inhibition observed with Serine/threonine-protein kinase MRCK alpha (Homo sapiens) for "CN1CCN(C(=O)c2ccc(NC(=O)Nc3ccc(N(C)c4ccnc(Nc5ccc(CS(C)(=O)=O)cc5)n4)cc3)cc2)CC1"
7.71

Enter reported inhibition observed with Serine/threonine-protein kinase MRCK alpha (Homo sapiens) for "ON=C1CCc2cc(-c3nc(C4CCNCC4)[nH]c3-c3ccncc3)ccc21"
1.89

Enter reported inhibition observed with Serine/threonine-protein kinase MRCK alpha (Homo sapiens) for "NC(=O)c1sc(-n2cnc3ccccc32)cc1OCc1ccccc1Br"
4.94

Enter reported inhibition observed with Serine/threonine-protein kinase MRCK alpha (Homo sapiens) for "Cc1cc(O)cc(C)c1/C=C/c1cncc(C(=O)N(C)C)c1"
0.32

Enter reported inhibition observed with Serine/threonine-protein kinase MRCK alpha (Homo sapiens) for "NC(=O)c1cccc(Nc2nccc(Nc3cccc(F)c3)n2)c1"
0.87

Enter reported inhibition observed with Serine/threonine-protein kinase MRCK alpha (Homo sapiens) for "CCS(=O)(=O)c1ccc(OC)c(Nc2nccc(N(C)c3ccc4c(C)n[nH]c4c3)n2)c1"
-2.48

Enter reported inhibition observed with Serine/threonine-protein kinase MRCK alpha (Homo sapiens) for "Nc1nccc(-c2c(-c3ccc(F)cc3)ncn2CCCN2CCOCC2)n1"
1.54

Enter reported inhibition observed with Serine/threonine-protein kinase MRCK alpha (Homo sapiens) for "NS(=O)(=O)c1ccc(NC=C2C(=O)Nc3ccc4ncsc4c32)cc1"
20.5

Enter reported inhibition observed with Serine/threonine-protein kinase MRCK alpha (Homo sapiens) for "Cc1ccc2c(c1)/C(=N/Nc1ccc(S(N)(=O)=O)cc1)C(=O)N2"
1.3

Enter reported inhibition observed with Serine/threonine-protein kinase MRCK alpha (Homo sapiens) for "NS(=O)(=O)c1ccc(-c2cc3ccncc3cc2OCc2ccccc2)cc1"
-1.1

Enter reported inhibition observed with Serine/threonine-protein kinase MRCK alpha (Homo sapiens) for "N#Cc1cccc(Nc2nccc(-c3cnn4ncccc34)n2)c1"
2.93

Enter reported inhibition observed with Serine/threonine-protein kinase MRCK alpha (Homo sapiens) for "NS(=O)(=O)c1ccc(N/N=C2\C(=O)Nc3ccc(Cl)cc32)cc1"
2.52

Enter reported inhibition observed with Serine/threonine-protein kinase MRCK alpha (Homo sapiens) for "COc1cccc(-n2ncc3c(N/N=C/c4ccc(C)cc4)ncnc32)c1"
5.98

Enter reported inhibition observed with Serine/threonine-protein kinase MRCK alpha (Homo sapiens) for "Cc1ccc(C(=O)NC2CC2)cc1-c1ccc2[nH]ncc2c1"
0.57

Enter reported inhibition observed with Serine/threonine-protein kinase MRCK alpha (Homo sapiens) for "Cc1nc(-c2ccccc2)n2nc(NCCCN3CCOCC3)ncc12"
2.64

Enter reported inhibition observed with Serine/threonine-protein kinase MRCK alpha (Homo sapiens) for "FC(F)(F)c1ccc(-c2nn3ncccc3c2-c2ccnc(Nc3ccc4c(c3)OCCO4)n2)cc1"
5.17
